- Experimental system: various mutants of kinase EGFR (BaF3 cell lines stably transfected with kinase) (Homo sapiens, UniProt P00533)
- Construct: other: BaF3 cells stably transfected with EGFR Δ19Del; MTS, 48 h; other: BaF3 cell line stably transfected with EGFR Δ19Del
- Sequence (P00533 with tags, fused parts or gaps DEL746-750): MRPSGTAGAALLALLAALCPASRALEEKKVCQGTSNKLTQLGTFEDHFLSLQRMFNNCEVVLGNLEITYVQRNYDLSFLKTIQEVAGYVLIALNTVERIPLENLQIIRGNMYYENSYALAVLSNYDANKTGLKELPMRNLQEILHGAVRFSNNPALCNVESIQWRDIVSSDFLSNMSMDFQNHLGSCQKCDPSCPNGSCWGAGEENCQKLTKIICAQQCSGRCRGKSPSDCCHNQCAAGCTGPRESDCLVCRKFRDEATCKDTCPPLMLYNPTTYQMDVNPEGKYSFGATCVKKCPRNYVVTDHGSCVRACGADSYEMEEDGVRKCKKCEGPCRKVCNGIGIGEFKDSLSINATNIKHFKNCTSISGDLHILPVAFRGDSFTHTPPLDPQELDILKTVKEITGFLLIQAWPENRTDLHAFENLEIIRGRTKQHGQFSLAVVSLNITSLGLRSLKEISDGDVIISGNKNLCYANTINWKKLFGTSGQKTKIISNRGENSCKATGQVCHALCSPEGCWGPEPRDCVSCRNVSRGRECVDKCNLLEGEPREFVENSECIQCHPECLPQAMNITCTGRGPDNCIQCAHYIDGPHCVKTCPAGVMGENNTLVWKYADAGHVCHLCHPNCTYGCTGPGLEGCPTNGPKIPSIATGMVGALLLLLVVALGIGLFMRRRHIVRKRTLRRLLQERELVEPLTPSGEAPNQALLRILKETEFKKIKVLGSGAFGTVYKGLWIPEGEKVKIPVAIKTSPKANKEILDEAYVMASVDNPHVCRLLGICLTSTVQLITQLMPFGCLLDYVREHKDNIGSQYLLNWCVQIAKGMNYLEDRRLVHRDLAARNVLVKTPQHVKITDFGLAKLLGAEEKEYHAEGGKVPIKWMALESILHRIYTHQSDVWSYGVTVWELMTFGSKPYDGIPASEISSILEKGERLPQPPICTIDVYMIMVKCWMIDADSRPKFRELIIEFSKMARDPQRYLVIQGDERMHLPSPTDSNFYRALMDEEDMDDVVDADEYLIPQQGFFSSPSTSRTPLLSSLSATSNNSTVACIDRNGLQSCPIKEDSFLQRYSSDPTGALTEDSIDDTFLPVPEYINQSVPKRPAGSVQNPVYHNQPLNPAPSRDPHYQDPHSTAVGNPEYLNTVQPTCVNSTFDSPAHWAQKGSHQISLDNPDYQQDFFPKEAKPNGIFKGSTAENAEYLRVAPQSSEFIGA
- Experiment summary: Growth inhibitory activity of compounds on BaF3 cell lines stably transfected with kinase (MTS, 48 h)
- Assay type: cell-based
- Condition context: BaF3 cells stably transfected with EGFR Δ19Del, read-out: IC50, growth inhibition, Δ19Del
pIC50: −log10 of the molar value.
Listed molecules paired with reported pIC50

Solved cases below.
[[record]]
molecule = "CN(c1c(Nc2nc(NC3CC3)ncc2Br)ccc2nccnc12)S(C)(=O)=O [Compound I-73]"
readout_value = "5.60 to 6.30"

[[record]]
molecule = "COc1nc(N2CCC(N3CCN(C)CC3)CC2)ccc1Nc1ncc(F)c(Nc2ccc3nccnc3c2N(C)S(C)(=O)=O)n1 [Compound I-175]"
readout_value = "5.60 to 6.30"

[[record]]
molecule = "CCc1cc(Nc2ncc(C3CC3)c(Nc3ccc4nccnc4c3N(C)S(C)(=O)=O)n2)ccc1N1CCC(N2CCN(C)CC2)CC1 [Compound I-293]"
readout_value = "6.30 to 7.30"

[[record]]
molecule = "COc1cc(N2CCC(N3CCN(C)CC3)CC2)ccc1Nc1ncc(F)c(Nc2ccc3nccnc3c2N(C)S(=O)(=O)C2CC2)n1 [Compound I-247]"
readout_value = "6.30 to 7.30"

[[record]]
molecule = "CCOc1cc(N2CCN(C)CC2)ccc1Nc1ncc(Br)c(Nc2ccc3nccnc3c2N(C)S(C)(=O)=O)n1 [Compound I-39]"
readout_value = "5.60 to 6.30"

[[record]]
molecule = "COc1cc(N2CCC(N(C)C)CC2)c(C)cc1Nc1ncc(F)c(Nc2ccc3nccnc3c2N(C)S(C)(=O)=O)n1 [Compound I-183]"
readout_value = "≥ 7.30"


Endpoint output: pIC50 of CCc1cc(Nc2ncc(Br)c(Nc3ccc4nccnc4c3N(C)S(=O)(=O)C(F)(F)F)n2)c(OC)cc1N1CCC(N(C)C)CC1 [Compound I-127] . Value?
5.60 to 6.30
